Test: Plasma pharmacokinetics after intravenous administration to mice
Assay type: in vivo
Details: mouse, plasma, iv, 25 mg/kg, after iv Val-B-EMAU 25 mg/kg (FIG. 1), read-out: half life of HB-EMAU
ASSAY METRIC: half-life

Consider the molecule CCc1cc(Nc2cc(=O)n(CCCCO)c(=O)[nH]2)ccc1C and give its measured half-life.
~43 min

====

# key: entry, value: Ki
Target: EF pol III (Enterococcus faecalis)
Experiment: Inhibition of E. fecalis pol III (Ki)
Format: biochemical
Settings: Table 4, average of 3 determinations, standard deviation 13.4%; read-out: KI EF pol III

{"COMPOUND": "CCc1cc(Nc2cc(=O)n(CCO)c(=O)[nH]2)ccc1C [HE-EMAU]", "REPORTED MEASUREMENT": "170 nM"}

Given the compound CCc1cc(Nc2cc(=O)n(CCCO)c(=O)[nH]2)ccc1C [HP-EMAU] , what is its reported Ki?
140 nM

Lookup CCc1cc(Nc2cc(=O)n(CCOC)c(=O)[nH]2)ccc1C [ME-EMAU]
160 nM

Further, for CCc1cc(Nc2cc(=O)n(CCCOC)c(=O)[nH]2)ccc1C [MP-EMAU] ?
190 nM

====

Target: B. subtilis DNA pol III (Bacillus subtilis)
Sequence (P13267 whole entry): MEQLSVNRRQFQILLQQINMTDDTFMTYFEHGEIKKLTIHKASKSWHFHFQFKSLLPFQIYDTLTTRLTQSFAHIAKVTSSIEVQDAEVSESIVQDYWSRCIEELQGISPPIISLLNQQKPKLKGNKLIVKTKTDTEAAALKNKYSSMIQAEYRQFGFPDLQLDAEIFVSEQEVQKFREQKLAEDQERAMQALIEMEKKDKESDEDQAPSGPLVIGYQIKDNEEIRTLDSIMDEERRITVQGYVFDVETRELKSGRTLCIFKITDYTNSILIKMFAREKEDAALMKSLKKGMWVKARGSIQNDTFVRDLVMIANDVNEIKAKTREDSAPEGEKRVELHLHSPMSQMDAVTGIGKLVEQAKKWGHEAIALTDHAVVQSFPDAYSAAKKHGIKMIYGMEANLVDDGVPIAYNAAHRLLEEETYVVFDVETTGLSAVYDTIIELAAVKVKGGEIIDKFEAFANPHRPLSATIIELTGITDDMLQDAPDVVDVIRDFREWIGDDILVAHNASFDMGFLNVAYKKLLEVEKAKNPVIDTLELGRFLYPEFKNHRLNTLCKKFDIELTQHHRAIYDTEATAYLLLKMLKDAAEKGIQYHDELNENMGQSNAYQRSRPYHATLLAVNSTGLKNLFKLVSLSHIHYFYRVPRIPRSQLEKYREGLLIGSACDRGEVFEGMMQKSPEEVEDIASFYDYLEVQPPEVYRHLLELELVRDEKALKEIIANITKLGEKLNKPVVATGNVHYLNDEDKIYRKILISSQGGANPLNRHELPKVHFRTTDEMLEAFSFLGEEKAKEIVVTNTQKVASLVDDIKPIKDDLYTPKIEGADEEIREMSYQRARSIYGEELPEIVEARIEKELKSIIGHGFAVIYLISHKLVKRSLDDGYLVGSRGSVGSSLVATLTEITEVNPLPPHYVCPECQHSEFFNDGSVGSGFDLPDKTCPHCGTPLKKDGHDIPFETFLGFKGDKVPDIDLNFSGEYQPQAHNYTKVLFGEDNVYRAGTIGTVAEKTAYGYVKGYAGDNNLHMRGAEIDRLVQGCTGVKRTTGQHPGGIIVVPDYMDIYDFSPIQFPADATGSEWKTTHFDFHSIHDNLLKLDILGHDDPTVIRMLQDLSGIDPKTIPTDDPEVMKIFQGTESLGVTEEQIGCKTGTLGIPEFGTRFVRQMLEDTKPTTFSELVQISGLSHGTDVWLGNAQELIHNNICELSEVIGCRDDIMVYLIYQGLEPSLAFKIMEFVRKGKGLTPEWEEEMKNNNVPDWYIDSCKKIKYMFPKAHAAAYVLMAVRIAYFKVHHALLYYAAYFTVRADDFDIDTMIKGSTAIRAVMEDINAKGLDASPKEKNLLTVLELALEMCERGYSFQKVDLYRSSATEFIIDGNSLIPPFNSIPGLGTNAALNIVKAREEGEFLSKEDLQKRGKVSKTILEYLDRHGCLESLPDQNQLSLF
Assay: Inhibition of B. subtilis DNA pol III (Ki)
Assay type: biochemical
Conditions: Table 6; read-out: Ki, inhibition constant vs. B. subtilis DNA pol III
For each record, check the reported Ki: if it is below 400 nM write True, else write False.

For orientation, consider the following solved cases.
{"RECORD SMILES": "COCCCCn1c(=O)cc(Nc2ccc(C)c(I)c2)[nH]c1=O", "CLASS NAME": "False"}
{"RECORD SMILES": "CCc1cc(Nc2cc(=O)n(CCCCI)c(=O)[nH]2)ccc1C", "CLASS NAME": "True"}
{"RECORD SMILES": "CCc1cc(Nc2cc(=O)n(CCCCO)c(=O)[nH]2)ccc1C", "CLASS NAME": "True"}
{"RECORD SMILES": "Cc1ccc(Nc2cc(=O)n(CCCCI)c(=O)[nH]2)cc1I", "CLASS NAME": "False"}
{"RECORD SMILES": "Cc1ccc(Nc2cc(=O)n(CCCCO)c(=O)[nH]2)cc1I", "CLASS NAME": "True"}

Is the reported Ki for CCc1cc(Nc2cc(=O)n(CCCCOC)c(=O)[nH]2)ccc1C strictly below 400 nM?
False

====

// solubility lookup, one value per entry
Assay: Solubility in water
Assay type: physicochemical
Details: 25° C.

{"COMPOUND": "CCc1cc(Nc2cc(=O)n(CCCCOC(=O)[C@@H](N)C(C)C)c(=O)[nH]2)ccc1C [Val-B-EMAU, 3-(L-valylbutyl)-EMAU]", "ASSAY METRIC": "solubility", "REPORTED MEASUREMENT": "> 10000 µg/mL"}

Would you mind telling me what solubility value was observed for CCc1cc(Nc2cc(=O)n(CCCCO)c(=O)[nH]2)ccc1C [HB-EMAU] ?
~30 µg/mL
